target: RPA heterotrimer (UniProt P27694+P15927+P35244); experiment: fluorescence anisotropy; conditions: with 500 nM BSA as control; EMSA: 10 mM Tris pH 7.5, 50 ug/ml BSA, 5% glycerol, 25 mM DTT, 37 C 10 min, 25 nM DNA, 5% TBE gel; anisotropy: same buffer, 30 C
Sequence (P27694 whole entry, chain 1 of 3): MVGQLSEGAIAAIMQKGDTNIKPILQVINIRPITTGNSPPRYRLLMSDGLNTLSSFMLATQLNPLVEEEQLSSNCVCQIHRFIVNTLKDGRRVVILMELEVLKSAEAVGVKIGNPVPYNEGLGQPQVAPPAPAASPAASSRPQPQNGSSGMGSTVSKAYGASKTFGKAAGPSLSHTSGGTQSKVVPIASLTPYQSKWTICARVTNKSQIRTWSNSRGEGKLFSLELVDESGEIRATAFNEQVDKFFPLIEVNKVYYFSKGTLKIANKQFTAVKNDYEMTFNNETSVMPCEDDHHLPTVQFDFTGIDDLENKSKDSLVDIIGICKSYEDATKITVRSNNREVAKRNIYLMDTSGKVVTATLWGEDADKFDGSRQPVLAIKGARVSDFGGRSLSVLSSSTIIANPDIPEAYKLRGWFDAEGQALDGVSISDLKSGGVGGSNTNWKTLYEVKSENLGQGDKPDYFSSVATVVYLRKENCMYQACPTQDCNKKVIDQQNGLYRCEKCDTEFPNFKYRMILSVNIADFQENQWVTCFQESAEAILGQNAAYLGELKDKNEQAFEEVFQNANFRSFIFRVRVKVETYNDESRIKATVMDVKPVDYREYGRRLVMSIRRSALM
Sequence (P15927 whole entry, chain 2 of 3): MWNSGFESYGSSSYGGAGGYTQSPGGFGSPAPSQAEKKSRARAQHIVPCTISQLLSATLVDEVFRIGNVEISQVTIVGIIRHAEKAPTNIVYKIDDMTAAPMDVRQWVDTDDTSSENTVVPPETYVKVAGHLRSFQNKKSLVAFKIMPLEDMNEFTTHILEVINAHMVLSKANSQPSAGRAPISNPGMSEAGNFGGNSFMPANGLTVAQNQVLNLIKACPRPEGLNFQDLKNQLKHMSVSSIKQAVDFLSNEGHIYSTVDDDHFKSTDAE
Sequence (P35244 whole entry, chain 3 of 3): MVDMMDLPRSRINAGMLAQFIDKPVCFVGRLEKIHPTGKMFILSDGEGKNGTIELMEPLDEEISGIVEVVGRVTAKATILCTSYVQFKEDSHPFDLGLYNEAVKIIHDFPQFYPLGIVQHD
pKd: −log10 of the molar value.
Recorded Endpoint: pKd

Sequence Chain	Meas Value
GTCGGATCCTCTAGACAGCATCCATGATCACTGGCACTGGTAGAATTCGGC / CAACGTCATAGACGATTACATTGCTACATGGATGCTGTCTAGAGGATCCGA [fork-2 fluorescein]	7.34
